// values below are reported % Blocking
Target: T1, human chemokine (C-C motif) receptor 8 (CCR8) (human, UniProt P51685 1-355)
T1 construct: On human peripheral blood lymphocytes / PBMC (native) or on human CCR8 GFP-transfected Ba/F3 cells; also called hCCR8; human CCR8
T1 sequence (P51685 whole entry): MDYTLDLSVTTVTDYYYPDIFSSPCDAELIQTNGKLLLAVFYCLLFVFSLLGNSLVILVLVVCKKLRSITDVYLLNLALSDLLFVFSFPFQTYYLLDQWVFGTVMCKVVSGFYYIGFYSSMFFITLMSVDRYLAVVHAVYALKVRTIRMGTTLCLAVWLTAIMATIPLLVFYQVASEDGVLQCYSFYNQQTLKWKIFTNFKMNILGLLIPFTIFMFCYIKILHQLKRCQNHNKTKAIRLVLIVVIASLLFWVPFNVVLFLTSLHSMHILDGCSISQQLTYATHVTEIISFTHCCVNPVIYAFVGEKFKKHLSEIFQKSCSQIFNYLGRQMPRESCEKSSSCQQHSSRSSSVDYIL
Assay: flow cytometry blocking, PBMC CCR8+ CD4+ cells; competitor PE-AB14 (its MFI is read)
measurement-name: % Blocking (%)

>>> number("AB13 (antibody, V domains shown, Hybridoma monoclonal; also called antibody 13; clone 13) VH: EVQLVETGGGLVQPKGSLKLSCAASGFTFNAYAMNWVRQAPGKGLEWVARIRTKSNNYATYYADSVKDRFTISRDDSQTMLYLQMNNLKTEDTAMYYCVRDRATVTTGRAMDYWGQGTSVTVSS VL: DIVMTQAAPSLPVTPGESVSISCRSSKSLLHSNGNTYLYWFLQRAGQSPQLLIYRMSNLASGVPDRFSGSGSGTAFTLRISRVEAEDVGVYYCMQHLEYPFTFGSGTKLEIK")
-413
>>> number("AB4 (antibody, V domains shown, Hybridoma monoclonal; also called antibody 4; clone 4) VH: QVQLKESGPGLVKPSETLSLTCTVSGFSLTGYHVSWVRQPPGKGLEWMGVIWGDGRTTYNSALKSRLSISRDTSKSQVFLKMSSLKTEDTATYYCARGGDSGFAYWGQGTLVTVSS VL: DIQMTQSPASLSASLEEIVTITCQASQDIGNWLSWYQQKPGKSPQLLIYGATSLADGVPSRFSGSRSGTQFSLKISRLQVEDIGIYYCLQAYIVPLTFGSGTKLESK")
0.97
>>> number("AB3 (antibody, V domains shown, Hybridoma monoclonal; also called antibody 3; clone 3) VH: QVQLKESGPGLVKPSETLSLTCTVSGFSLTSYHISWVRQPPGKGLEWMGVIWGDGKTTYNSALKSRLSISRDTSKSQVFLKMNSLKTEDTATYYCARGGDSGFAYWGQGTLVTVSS VL: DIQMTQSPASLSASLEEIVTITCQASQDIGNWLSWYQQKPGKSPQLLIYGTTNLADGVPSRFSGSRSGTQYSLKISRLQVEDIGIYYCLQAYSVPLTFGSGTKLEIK")
-2.68
>>> number("AB12 (antibody, V domains shown, Hybridoma monoclonal; also called antibody 12; clone 12) VH: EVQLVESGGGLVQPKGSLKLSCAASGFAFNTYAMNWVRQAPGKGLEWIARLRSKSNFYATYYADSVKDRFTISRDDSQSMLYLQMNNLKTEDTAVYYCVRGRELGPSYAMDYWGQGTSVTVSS VL: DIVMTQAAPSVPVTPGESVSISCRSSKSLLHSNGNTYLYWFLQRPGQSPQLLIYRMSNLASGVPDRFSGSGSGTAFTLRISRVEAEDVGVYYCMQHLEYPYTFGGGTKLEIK")
100
